Target: WRN (BV08), human Werner helicase (Uniprot Q14191, amino acids 517-1235 with L1074F point mutation) (Homo sapiens (Human), UniProt Q14191, L1074F)
Sequence (Q14191 other isoform, or with tags, fused parts or gaps L1074F (already in the parent)): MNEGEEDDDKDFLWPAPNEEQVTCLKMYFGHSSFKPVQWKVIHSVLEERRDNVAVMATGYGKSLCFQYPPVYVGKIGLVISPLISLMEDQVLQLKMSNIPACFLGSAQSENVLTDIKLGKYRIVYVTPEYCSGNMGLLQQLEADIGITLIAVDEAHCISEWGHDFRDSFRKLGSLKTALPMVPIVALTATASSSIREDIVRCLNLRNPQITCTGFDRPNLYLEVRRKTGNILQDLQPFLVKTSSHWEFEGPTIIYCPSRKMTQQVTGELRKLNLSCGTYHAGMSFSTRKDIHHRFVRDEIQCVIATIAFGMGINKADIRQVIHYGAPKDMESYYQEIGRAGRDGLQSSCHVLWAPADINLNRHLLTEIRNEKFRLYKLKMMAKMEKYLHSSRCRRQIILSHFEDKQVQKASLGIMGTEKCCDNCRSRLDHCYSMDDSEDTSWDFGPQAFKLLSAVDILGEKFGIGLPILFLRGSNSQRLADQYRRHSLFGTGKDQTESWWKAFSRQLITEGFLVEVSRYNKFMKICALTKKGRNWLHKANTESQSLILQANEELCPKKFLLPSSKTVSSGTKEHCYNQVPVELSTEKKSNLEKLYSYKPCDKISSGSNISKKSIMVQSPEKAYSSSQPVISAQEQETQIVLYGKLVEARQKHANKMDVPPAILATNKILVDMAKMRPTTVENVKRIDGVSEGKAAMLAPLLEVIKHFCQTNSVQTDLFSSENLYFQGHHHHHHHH
Assay: WRN (BV08) ADP-Glo assay
Details: class symbols A-E, read-out: ADP-Glo_hWRN_IC50
pIC50: −log10 of the molar value.
ENDPOINT_NAME: pIC50

What measured pIC50 goes with CCc1c(N2CCN(C(=O)c3ncnc(C)c3O)CC2)c(=O)c2nc(N3CC[C@@H](O)C3)cnc2n1CC(=O)Nc1ccc(C(F)(F)F)cc1Cl ?
7.30 to 8.30

Try this molecule too: CCc1c(N2CCN(C(=O)c3ncnc(C)c3O)CC2)c(=O)c2nc(N3CCC34CCC4)cnc2n1CC(=O)Nc1ccc(C(F)(F)F)cc1Cl
7.30 to 8.30

And the next one, CCc1c(N2CCN(C(=O)c3c(O)ccnc3OC)CC2)c(=O)c2nc(N(C)C)cnc2n1CC(=O)Nc1ccc(C(F)(F)F)cc1Cl ?
7.30 to 8.30
